- TEST: Pharmacokinetics after intravenous administration in rats (LC-MS)
- CONDITIONS: male, Sprague-Dawley, rat, in vivo, iv, 1 mg/kg, Plasma concentration, Mean, IV 1 mg/kg; 4.0 hr; mean of 3 rats

{"STRUCTURE SMILES STRING": "NC(=O)N(CCC(=O)O)NC(=O)[C@H](CO)NC(=O)[C@H](CO)NC(=O)N(N)Cc1ccccc1", "concentration at 4 hr [ng/mL]": 16.6}

###

- TEST: Pharmacokinetics after intravenous administration in rats (LC-MS)
- CONDITIONS: male, Sprague-Dawley, rat, in vivo, iv, 1 mg/kg, Plasma concentration, Mean, IV 1 mg/kg; 1.0 hr; mean of 3 rats

{"MOLECULE": "NC(=O)N(CCC(=O)O)NC(=O)[C@H](CO)NC(=O)[C@H](CO)NC(=O)N(N)Cc1ccccc1 [K883]", "concentration at 1 hr": "1090 ng/mL"}
